- experiment.description: Cytotoxic concentration (CC50)
- Format: cell-based
- settings: human, THP-1 cells
recorded.metric: CC50 (µM)
Express the result in µM but write the number alone.

Give its CC50 value. Item: C=CC/C=C/C/C=C/CCCCCCCc1cc(O)cc(O)c1 148

----------
- experiment.description: Cytotoxic concentration (CC50)
- Type: cell-based
- settings: human; HepG2 cells
- Description: Next, the compound mixture were further purified and synthesized into saturated (C15:0), monoene (C15:1), diene (C15:2), and triene (C15:3) as described in materials and methods. Toxicities were analyzed and results were calculated to percent viability and CC50 were analyzed using non-linear regression curve (Table 1). […] Cardanol triene was insoluble in DMSO, therefore the compound was excluded from this study. […]
recorded.metric: CC50 (µM)
Express the result in µM but write the number alone.

Give its CC50 value. Item: C=CC/C=C/C/C=C/CCCCCCCc1cc(O)cc(O)c1 140

----------
- System: DENV2 NGC
- experiment.description: Efficacy study (EC50) in DENV2 infected Vero cells, plaque titration
- Format: cell-based, Dengue virus
- settings: Vero CC50 / DENV2 EC50
recorded.metric: TI (therapeutic index, CC50/EC50)
// return a plain number; no unit text

Give its TI (therapeutic index, CC50/EC50) value. Item: CCCCCCCCCCCCCCCc1cccc(O)c1 7.39

Give its TI (therapeutic index, CC50/EC50) value. Item: CCCCCC/C=C\CCCCCCCc1cccc(O)c1C(=O)O [Anacardic acid monoene, 6-[8(Z)-pentadecenyl]salicylic acid] 5.88

Give its TI (therapeutic index, CC50/EC50) value. Item: CCCCCCCCCCCCCCCc1cccc(O)c1C(=O)O 15.39

Give its TI (therapeutic index, CC50/EC50) value. Item: CCCCCCCCCCCCCCCc1cc(O)cc(O)c1 4.62

Give its TI (therapeutic index, CC50/EC50) value. Item: C=CC/C=C/C/C=C/CCCCCCCc1cc(O)cc(O)c1 29.07

Give its TI (therapeutic index, CC50/EC50) value. Item: C=CC/C=C/C/C=C/CCCCCCCc1cccc(O)c1C(=O)O 15.38

----------
- Tested on: DENV3 (16562)
- experiment.description: Efficacy (EC50) in infected Vero cells
- Assay type: cell-based
- settings: Dengue virus
recorded.metric: EC50 (µM)
Express the result in µM but write the number alone.

Which measured EC50 belongs to C=CC/C=C/C/C=C/CCCCCCCc1cc(O)cc(O)c1 , tested on DENV3 (16562)? 8.98

Every entry's value here was drawn from paper PMC6226472.
